Hey, just so you know, these numbers are from the supplement of paper PMC8882468.

Form field: CTG-3D luminescence at 96 h (one value per entry).
tested on: HCI-012 (organoid from a breast cancer xenograft); assay: CTG-3D luminescence at 96 h relative to day-0 seeding control (ratio to day 0); higher = more growth / less cytotoxicity; PDxO 3D drug screen, 96 h, CTG-3D normalised to day-0 seeding control.; details: 10 µM; days in culture: 143

Q: If you can, please state the reported CTG-3D luminescence at 96 h value of "CC1(C)CCC(c2ccc(Cl)cc2)=C(CN2CCN(c3ccc(C(=O)NS(=O)(=O)c4ccc(N[C@H](CCN5CCOCC5)CSc5ccccc5)c(S(=O)(=O)C(F)(F)F)c4)cc3)CC2)C1" .
Result: 2.21

Q: Another compound: "NC(=O)c1cccc2cn(-c3ccc([C@@H]4CCCNC4)cc3)nc12"
Result: 0.467

Q: Another compound: "Cc1cc(Nc2ncnc3ccc(NC4=NC(C)(C)CO4)cc23)ccc1Oc1ccn2ncnc2c1"
Result: 1.99

Q: Another compound: "CC(=O)O[C@H]1C(=O)[C@@]2(C)[C@H]([C@H](OC(=O)c3ccccc3)[C@]3(O)C[C@H](OC(=O)[C@H](O)[C@@H](NC(=O)c4ccccc4)c4ccccc4)C(C)=C1C3(C)C)[C@]1(OC(C)=O)CO[C@@H]1C[C@@H]2O"
Result: 0.829

Q: Another compound: "CCN(c1cc(C#CCN2CCOCC2)cc(C(=O)NCc2c(C)cc(C)[nH]c2=O)c1C)[C@H]1CC[C@H](N(C)CCOC)CC1"
Result: 3.17

Q: Another compound: "CC[C@H](NC(=O)[C@H](C)NC)C(=O)N1C[C@@H](O)C[C@H]1Cc1c(-c2[nH]c3cc(F)ccc3c2C[C@@H]2C[C@H](O)CN2C(=O)[C@H](CC)NC(=O)[C@H](C)NC)[nH]c2cc(F)ccc12"
Result: 1.03

----------
tested on: HCI-025 (organoid from a breast cancer xenograft); experiment: CTG-3D luminescence at 96 h relative to day-0 seeding control (ratio to day 0); higher = more growth / less cytotoxicity; PDxO 3D drug screen, 96 h, CTG-3D normalised to day-0 seeding control.; conditions: 12.5 pM; days in culture: 172
Form field: CTG-3D luminescence at 96 h (one value per entry).
Output spec: single numeric token, no unit.

Look over these answered cases.
Cc1cc(Nc2ncc(Cl)c(Nc3ccccc3S(=O)(=O)C(C)C)n2)c(OC(C)C)cc1C1CCNCC1 :: 2.83
C[C@H](NC(=O)CCC(F)(F)F)C(=O)N[C@@H]1C(=O)N(CCO)c2ncccc2-c2ccccc21 :: 2.73
CNC(=O)c1cccc(-c2ccc3c(N4CCOC[C@@H]4C)nc(N4CCOC[C@@H]4C)nc3n2)c1 :: 2.8
C[C@@H]1COCCN1c1cc(C2([S@](C)(=N)=O)CC2)nc(-c2cc[nH]c3nccc2-3)n1 :: 2.29

Q: If you can, please state the reported CTG-3D luminescence at 96 h value of "CCc1c2c(nc3ccc(O)cc13)-c1cc3c(c(=O)n1C2)COC(=O)[C@]3(O)CC" .
Result: 3.42

Q: Another compound: "COc1cccc2c1C(=O)c1c(O)c3c(c(O)c1C2=O)C[C@@](O)(C(=O)CO)C[C@@H]3O[C@H]1C[C@H](N)[C@H](O)[C@H](C)O1"
Result: 2.56

----------
Form field: CTG-3D luminescence at 96 h (one value per entry).
system: HCI-027 (organoid from a triple-negative breast cancer xenograft); experiment: CTG-3D luminescence at 96 h relative to day-0 seeding control (ratio to day 0); higher = more growth / less cytotoxicity; PDxO 3D drug screen, 96 h, CTG-3D normalised to day-0 seeding control.; conditions: 0.00025 µM; days in culture: 194
Output spec: single numeric token, no unit.

C[C@@H]1COCCN1c1cc(C2([S@](C)(=N)=O)CC2)nc(-c2cc[nH]c3nccc2-3)n1 [ceralasertib] :: 1.54

Q: # value lookup — system HCI-027, readout CTG-3D luminescence at 96 h, item CN(Cc1cnc2nc(N)nc(N)c2n1)c1ccc(C(=O)N[C@@H](CCC(=O)O)C(=O)O)cc1 [methotrexate]
Result: 1.38

Q: Another compound: CNC(=O)c1cccc(-c2ccc3c(N4CCOC[C@@H]4C)nc(N4CCOC[C@@H]4C)nc3n2)c1 [vistusertib]
Result: 1.49

Q: Another compound: O=C(/C=C/c1cccnc1)NCCCCC1CCN(C(=O)c2ccccc2)CC1 [FK866]
Result: 1.47

Q: Another compound: C=CCn1c(=O)c2cnc(Nc3ccc(N4CCN(C)CC4)cc3)nc2n1-c1cccc(C(C)(C)O)n1 [adavosertib]
Result: 1.52

Q: Another compound: NC(=O)Nc1cc(-c2cccc(F)c2)sc1C(=O)N[C@H]1CCCNC1 [AZD7762]
Result: 1.22

Q: Another compound: COc1cc2c(Oc3ccc4[nH]c(C)cc4c3F)ncnc2cc1OCCCN1CCCC1 [cediranib]
Result: 1.48

Q: Another compound: Nc1ccn([C@@H]2O[C@H](CO)[C@@H](O)C2(F)F)c(=O)n1 [gemcitabine]
Result: 1.42

Q: Another compound: CC1(C)CCC(c2ccc(Cl)cc2)=C(CN2CCN(c3ccc(C(=O)NS(=O)(=O)c4ccc(N[C@H](CCN5CCOCC5)CSc5ccccc5)c(S(=O)(=O)C(F)(F)F)c4)cc3)CC2)C1 [navitoclax]
Result: 1.78

Q: Another compound: NC1(C(=O)N[C@@H](CCO)c2ccc(Cl)cc2)CCN(c2nc[nH]c3nccc2-3)CC1 [capivasertib]
Result: 1.48

----------
Form field: CTG-3D luminescence at 96 h (one value per entry).
test system: HCI-027; test: CTG-3D luminescence at 96 h relative to day-0 seeding control (ratio to day 0); higher = more growth / less cytotoxicity; PDxO 3D drug screen, 96 h, CTG-3D normalised to day-0 seeding control.; conditions: 1 µM; days in culture: 194
Output spec: single numeric token, no unit.

Look over these answered cases.
NC(=O)c1cccc2cn(-c3ccc([C@@H]4CCCNC4)cc3)nc12 [niraparib] :: 1.88
Nc1ccn([C@@H]2O[C@H](CO)[C@@H](O)C2(F)F)c(=O)n1 [gemcitabine] :: 0.284

Next molecule, please.
Q: If you can, please state the reported CTG-3D luminescence at 96 h value of NC(=O)Nc1cc(-c2cccc(F)c2)sc1C(=O)N[C@H]1CCCNC1 [AZD7762] .
Result: 0.0911

----------
test system: HCI-027; test: CTG-3D luminescence at 96 h relative to day-0 seeding control (ratio to day 0); higher = more growth / less cytotoxicity; PDxO 3D drug screen (set 2), 96 h, CTG-3D normalised to day-0 seeding control.; details: 1 µM; days in culture: 186
Form field: CTG-3D luminescence at 96 h (one value per entry).
Output spec: single numeric token, no unit.

Nc1cc(C(F)(F)F)c(-c2cc(N3CCOCC3)nc(N3CCOCC3)n2)cn1 [buparlisib] :: 0.528

Q: If you can, please state the reported CTG-3D luminescence at 96 h value of CC(C)n1nc(-c2ccc3oc(N)nc3c2)c2c(N)ncnc21 [sapanisertib] .
Result: 0.548

Q: Another compound: COc1cccc2c1C(=O)c1c(O)c3c(c(O)c1C2=O)C[C@@](O)(C(=O)CO)C[C@@H]3O[C@H]1C[C@H](N)[C@@H](O)[C@H](C)O1 [epirubicin]
Result: 0.0439

Q: Another compound: CCOc1ccn(-c2ccc(F)cc2)c(=O)c1C(=O)Nc1ccc(Oc2ccnc(N)c2Cl)c(F)c1 [ASLAN002]
Result: 0.755

----------
system: HCI-027; assay: CTG-3D luminescence at 96 h relative to day-0 seeding control (ratio to day 0); higher = more growth / less cytotoxicity; PDxO 3D drug screen, 96 h, CTG-3D normalised to day-0 seeding control.; conditions: 625 fM; days in culture: 194
Property Name: CTG-3D luminescence at 96 h
Output spec: single numeric token, no unit.

Look over these answered cases.
C=CCn1c(=O)c2cnc(Nc3ccc(N4CCN(C)CC4)cc3)nc2n1-c1cccc(C(C)(C)O)n1 :: 1.42
C=CC(=O)N1CCC[C@@H](n2nc(-c3ccc(Oc4ccccc4)cc3)c3c(N)ncnc32)C1 :: 1.76
NC(=O)c1cccc2cn(-c3ccc([C@@H]4CCCNC4)cc3)nc12 :: 2.19
C[C@]12CC[C@@H]3c4ccc(O)cc4C[C@@H](CCCCCCCCC[S+]([O-])CCCC(F)(F)C(F)(F)F)[C@H]3[C@@H]1CC[C@@H]2O (stereo partly specified) :: 1.71
CCc1c2c(nc3ccc(O)cc13)-c1cc3c(c(=O)n1C2)COC(=O)[C@]3(O)CC :: 1.66
Cc1cc(Nc2ncc(Cl)c(Nc3ccccc3S(=O)(=O)C(C)C)n2)c(OC(C)C)cc1C1CCNCC1 :: 1.39

Q: If you can, please state the reported CTG-3D luminescence at 96 h value of "CS(=O)(=O)c1ccc(C(=O)Nc2ccc(Cl)c(-c3ccccn3)c2)c(Cl)c1" .
Result: 2.34

Q: Another compound: "Cc1cc(Nc2ncnc3ccc(NC4=NC(C)(C)CO4)cc23)ccc1Oc1ccn2ncnc2c1"
Result: 1.7

Q: Another compound: "CC(C)(C(=O)NCC(F)(F)C(F)(F)F)C(=O)N[C@@H]1C(=O)Nc2ccccc2-c2ccccc21"
Result: 1.55

Q: Another compound: "Nc1ccn([C@@H]2O[C@H](CO)[C@@H](O)C2(F)F)c(=O)n1"
Result: 1.66

Q: Another compound: "C/C=C1\NC(=O)[C@H]2CSSCC/C=C/[C@H](CC(=O)N[C@H](C(C)C)C(=O)N2)OC(=O)[C@H](C(C)C)NC1=O"
Result: 2.17
